# EXPERIMENTAL_PROTOCOL: Study on DMPK in cynomolgus monkeys (oral, single administration)
# Assay type: in vivo
# RUN_PARAMETERS: cynomolgus monkey, plasma, male cynomolgus monkeys, oral 20 mg/kg, 24-hour oral exposure
VALUE_TYPE: AUC(0-t)

Exercise: For the molecule shown here, O=C(O)c1cc2c(nc(CN3CC=C(c4cccc(OCc5ccc(Cl)cc5F)n4)CC3)n2C[C@@H]2CCO2)s1 , give the reported AUC(0-t).
Key: 12.8 µM·h

* * *

# SYSTEM_NAME: GLP-1 receptor (Homo sapiens, UniProt P43220)
# Sequence (P43220 24-463): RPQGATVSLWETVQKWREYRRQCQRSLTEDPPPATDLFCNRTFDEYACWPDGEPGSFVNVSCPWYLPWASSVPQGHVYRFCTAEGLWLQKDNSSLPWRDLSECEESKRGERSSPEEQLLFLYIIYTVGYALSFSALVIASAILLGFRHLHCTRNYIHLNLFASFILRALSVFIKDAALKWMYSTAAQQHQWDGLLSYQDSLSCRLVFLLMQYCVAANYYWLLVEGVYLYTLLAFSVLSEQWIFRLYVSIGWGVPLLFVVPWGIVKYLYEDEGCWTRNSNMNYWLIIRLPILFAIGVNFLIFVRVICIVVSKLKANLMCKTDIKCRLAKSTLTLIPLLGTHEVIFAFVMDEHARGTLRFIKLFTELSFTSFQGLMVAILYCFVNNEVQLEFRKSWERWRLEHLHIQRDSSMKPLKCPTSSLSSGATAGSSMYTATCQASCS
# EXPERIMENTAL_PROTOCOL: Detection of cell viability in vitro (cAMP detection in GLP-1 cells)
# RUN_PARAMETERS: GLP-1 target in HEK293 host cell, cAMP detection; read-out: Human-GLP1, EC50
VALUE_TYPE: pEC50
Here pEC50 is given on a logarithmic scale as minus log10 of the concentration in mol/L.

Exercise: For the compound shown here, O=C(O)c1cc2c(nc(CN3CC=C(c4cccc(OCc5ccc(Cl)cc5F)n4)CC3)n2C[C@@H]2CCO2)s1 [compound of formula (I)] , give the reported pEC50.
Key: 9.43
